Consider the following molecules and their measured melting point readings.

INSERT INTO assay_data (structure_string, test_value) VALUES
  ('COc1ccc(-c2cc(=O)n3cc(C4=CCCNC4)ccc3n2)cc1OC', '146 to 150 °C'),
  ('CNCC1CCN(c2ccc3nc(-c4ccc(OC)c(F)c4)cc(=O)n3c2)CC1', '163 to 170 °C'),
  ('COc1ccc(-c2cc(=O)n3cc(C4=CCN(CCO)CC4)cc(C)c3n2)cc1OC', '169 to 179 °C');

# query: melting point of entry Cc1nc2ccc(-c3cc(=O)n4cc(N5CCN[C@H](C)C5)ccc4n3)cc2o1
175 to 177 °C
